Molecular target: UniProt Q96GD4
Sequence (Q96GD4 whole entry): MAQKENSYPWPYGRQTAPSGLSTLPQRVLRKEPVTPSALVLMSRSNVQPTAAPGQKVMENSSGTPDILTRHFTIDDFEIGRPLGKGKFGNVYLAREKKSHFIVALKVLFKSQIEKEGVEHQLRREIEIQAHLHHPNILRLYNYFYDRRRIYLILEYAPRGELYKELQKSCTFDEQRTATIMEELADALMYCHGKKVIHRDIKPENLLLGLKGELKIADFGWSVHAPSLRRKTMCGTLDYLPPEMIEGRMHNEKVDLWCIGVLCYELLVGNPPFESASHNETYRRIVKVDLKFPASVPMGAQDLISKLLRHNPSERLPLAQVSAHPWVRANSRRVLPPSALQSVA
Assay: Inhibition of human recombinant aurora B kinase
assay-readout: pIC50
Give bare numbers, as −log10 of the molar value.

Completed entries (count: 3):
{"query-smiles": "O=Nc1c(-c2c(O)[nH]c3c(Br)cccc23)[nH]c2ccccc12", "target-desc": "UniProt Q96GD4", "pIC50": 5.34}
{"query-smiles": "O=Nc1c(-c2c(O)[nH]c3c(Cl)cccc23)[nH]c2ccccc12", "target-desc": "UniProt Q96GD4", "pIC50": 5.10}
{"query-smiles": "O=Nc1c(-c2c(O)[nH]c3c(I)cccc23)[nH]c2ccccc12", "target-desc": "UniProt Q96GD4", "pIC50": 5.00}

Each of the following entries comes with a recorded value; kindly state pIC50 for each.
1. CC(=O)O/N=C1\C(c2c(O)[nH]c3ccccc23)=Nc2ccccc21
2. O=C1Nc2cc(Br)ccc2/C1=C1/Nc2ccccc2/C1=N\O

[5.68, 6.05]

----------
Target: Aurora kinase A (Homo sapiens)
Sequence (O14965 whole entry): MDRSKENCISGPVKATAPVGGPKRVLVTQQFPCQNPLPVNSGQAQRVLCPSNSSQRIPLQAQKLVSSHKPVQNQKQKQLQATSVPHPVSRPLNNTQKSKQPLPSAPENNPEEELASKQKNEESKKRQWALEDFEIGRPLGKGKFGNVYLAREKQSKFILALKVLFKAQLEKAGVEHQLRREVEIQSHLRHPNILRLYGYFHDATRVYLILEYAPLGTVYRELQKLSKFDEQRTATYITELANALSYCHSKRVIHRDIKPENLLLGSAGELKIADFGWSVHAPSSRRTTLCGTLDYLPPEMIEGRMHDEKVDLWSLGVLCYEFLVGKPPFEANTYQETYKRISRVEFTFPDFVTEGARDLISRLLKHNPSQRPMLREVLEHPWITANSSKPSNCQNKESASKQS
Assay: Inhibition of human recombinant aurora A kinase
assay-readout: IC50

Completed entries (count: 2):
{"query-smiles": "CC(=O)O/N=C1\\C(=C2\\C(=O)Nc3c(I)cccc32)Nc2ccccc21", "target-desc": "Aurora kinase A (Homo sapiens)", "IC50": "> 100 µM"}
{"query-smiles": "CC(=O)O/N=C1\\C(=C2\\C(=O)Nc3c(Cl)cccc32)Nc2ccccc21", "target-desc": "Aurora kinase A (Homo sapiens)", "IC50": "> 100 µM"}

Each of the following entries comes with a recorded value; kindly state IC50 for each.
1. O=C1C(c2c(O)[nH]c3c(Br)cccc23)=Nc2ccccc21
2. O=Nc1c(-c2c(O)[nH]c3c(F)cccc23)[nH]c2ccccc12
3. O=C1C(c2c(O)[nH]c3c(Cl)cccc23)=Nc2ccccc21
4. CC(=O)O/N=C1\C(=C2\C(=O)Nc3c(F)cccc32)Nc2ccccc21
5. O=Nc1c(-c2c(O)[nH]c3ccccc23)[nH]c2ccccc12
6. CC(=O)O/N=C1\C(=C2\C(=O)Nc3c(Br)cccc32)Nc2ccccc21
7. CC(=O)O/N=C1\C(c2c(O)[nH]c3ccccc23)=Nc2ccccc21

> 100 µM
2 µM
> 100 µM
20 µM
4 µM
> 100 µM
2.3 µM

Each of the following entries comes with a recorded value; kindly state IC50 for each.
1. CO/N=C1\C(=C2\C(=O)Nc3c(Br)cccc32)Nc2ccccc21
2. CO/N=C1\C(=C2\C(=O)Nc3c(F)cccc32)Nc2ccccc21

["> 100 µM", "> 100 µM"]
